Field: protein stability index. Provide a value for each of the variants that follow.
B1: ZNF649 (parent)
chain: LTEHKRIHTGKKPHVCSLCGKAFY

variants of: B1; assay: protein stability index of a GFP-peptide fusion (GPS, HEK-293T) (PSI 1-6); higher = more stable; settings: c terminus: a fixed tail appended;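 further: lentivirally expressed fusions sorted by FACS into six bins by GFP to DsRed ratio, PSI derived from sequencing read proportions per bin multiplied by bin number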
Numbers only.

Reported protein stability index for LTEHKRIHGGKKPHVCSLCGKAFY : what is it?
2.8

// each variant listed below needs its protein stability index
1. LTEHKRIHTGKQPHVCSLCGKAFY
2. LTEHKRIHTGKKPHVCSLCGKAGY
3. LTEHKRIHTGKKDHVCSLCGKAFY
4. LTEHKYIHTGKKPHVCSLCGKAFY
5. LTEHKRSHTGKKPHVCSLCGKAFY

2.39
2.67
1.8
2.5
3.72

Give one value of protein stability index per listed variant.
1. LTEHKRIHTGTKPHVCSLCGKAFY
2. LTEHKRIHTGKKPHVCSTCGKAFY
3. LTEHKRIHTTKKPHVCSLCGKAFY
4. LTEHARIHTGKKPHVCSLCGKAFY
5. LTEHKRGHTGKKPHVCSLCGKAFY
6. LTEHKRIHTGKIPHVCSLCGKAFY
7. LTEHKRIHTGKPPHVCSLCGKAFY
8. LTEHKRIHTGKKPHVCSLCGKAFG

1: 2.62; 2: 2.35; 3: 2.83; 4: 3.06; 5: 2.78; 6: 2.5; 7: 2.31; 8: 3.35

Look up protein stability index for the entries below, preserving their order.
1. LTEHKRIHSGKKPHVCSLCGKAFY
2. LTEHKRIHAGKKPHVCSLCGKAFY
3. LTEHKRRHTGKKPHVCSLCGKAFY
4. LTEHKNIHTGKKPHVCSLCGKAFY
5. LTEHKGIHTGKKPHVCSLCGKAFY

3.36
2.04
3.93
2.58
1.94

I'm hoping you can list protein stability index for every variant here, please.
1. LTEHKRIHTGKKPHVCSLCGKGFY
2. LTEHKRIHTGKKPHFCSLCGKAFY
3. LTEHKRIHTGKKPHVCSPCGKAFY
4. LTEHKRIHTGKKPHVCSLCGKAKY

2.56
2.42
3.85
3.87

Batch of 8 variants: report protein stability index for each.
1. LTPHKRIHTGKKPHVCSLCGKAFY
2. LTMHKRIHTGKKPHVCSLCGKAFY
3. LTEHKRIHTGKKPHVCSLCMKAFY
4. LTEHKRIHTGKKPHVCVLCGKAFY
5. LTEHKRIHTGKCPHVCSLCGKAFY
6. LTEHQRIHTGKKPHVCSLCGKAFY
7. LTEHKCIHTGKKPHVCSLCGKAFY
8. LTEHKRIHTGKKPHVCSLNGKAFY

1. 2.45
2. 1.89
3. 2.56
4. 1.49
5. 2.81
6. 2.79
7. 4.05
8. 2.89

Need protein stability index for each of these variants.
1. LTEHKRIHTGKKPHVCSLRGKAFY
2. LTEHKRFHTGKKPHVCSLCGKAFY
3. WTEHKRIHTGKKPHVCSLCGKAFY
4. LTEHKRIHTGKKYHVCSLCGKAFY
5. LTEHKRIHTGKKPHPCSLCGKAFY
6. LTEHKRIHTGKKPHVCSLCGKQFY
7. LTEHKRIHTGKKPHVCSLCFKAFY
8. LTEHKRIHTGKKPAVCSLCGKAFY

3.01
2.18
2.17
2.88
2.71
2.26
1.97
3.54

For each of the variants below, note its protein stability index.
1. LTEHKRIHTGKKPHVCSLCGKAVY
2. LTEHKRIHTGKKPHVCSLCGKAFM
3. LTEHKRIHTGKKPHVCSLCGKAFN
4. LTEHKRIHTGRKPHVCSLCGKAFY
5. LTEHKRIHTGKKPHVCSLCGKAIY
6. LTEHKSIHTGKKPHVCSLCGKAFY

2.32
2.69
1.43
1.76
2.45
2.25

Please state protein stability index for every variant in the list that follows.
1. LTEHKRIHTGKKPHVCSSCGKAFY
2. LTEHKRIHTGKKPHVCNLCGKAFY
3. LTEHKRIHTGKKPHMCSLCGKAFY
4. LTEHKRIHTGKKPHVCSLCHKAFY
5. LTEHKRIWTGKKPHVCSLCGKAFY
6. HTEHKRIHTGKKPHVCSLCGKAFY
7. LTEHKWIHTGKKPHVCSLCGKAFY

2.89
2.58
2.98
1.6
2.06
2.97
2.75
